The reported measurements were obtained from PubChem BioAssay.

target: Alpha-bungarotoxin (Bungarus multicinctus); assay: alpha-bungarotoxin binders on microarray, profiling panel, artefact control for SMM control protein annotation, biochemical, small-molecule microarray, Alexa647 label, 635/667 nm fluorescence (AID 1117); conditions: alpha-BTX-A647 binding fluorescence, higher = more signal
Given measured composite z-score, output Fulfilled if it is greater than or equal to 1 and Not fulfilled if not.

{"compound": "COCCOC(=O)N1C(=O)[C@@]2(c3cc(C#CC4=CCCCC4)ccc31)[C@H](c1ccc(O)cc1)N1[C@H](c3ccccc3)[C@H](c3ccccc3)OC(=O)[C@H]1[C@@H]2C(=O)N1CCN(c2ncccn2)CC1", "qualitative-label": "Not fulfilled"}
{"compound": "CCOc1cc(C(O)C2C=CC3C(=O)N(c4ccccc4)C(=O)C3N2Nc2ccc(C#N)cc2)ccc1O (stereo not drawn)", "qualitative-label": "Fulfilled"}
{"compound": "COCC1=C2[C@@H](CCc3ccccc3)OB(O)C[C@@H]2[C@@H]2C(=O)C=CC(=O)[C@@H]2C1", "qualitative-label": "Fulfilled"}
{"compound": "C=CCC(OC(C)=O)[C@@H]1[C@@H](N(Cc2ccc(-c3cccc(C(F)(F)F)c3)o2)C(=O)c2ccc(C)cc2)c2cc(OCCCO)ccc2N1C(=O)c1ccc2ccccc2c1 (stereo partly drawn)", "qualitative-label": "Not fulfilled"}
{"compound": "CC(C)C(=C=CC[C@H](O)c1ccc(OCCO)cc1)C[C@H](O)c1ccccn1", "qualitative-label": "Fulfilled"}
{"compound": "CCOC(=O)C1=C[C@@H](c2ccccc2)N(S(=O)(=O)c2ccc(C)cc2)[C@H]1c1ccccc1Cl", "qualitative-label": "Fulfilled"}
{"compound": "O=C1NC(=O)C2C1C=CC(C(O)CCc1ccccc1)N2Nc1ccc(Cl)cc1Cl (stereo not drawn)", "qualitative-label": "Fulfilled"}

###

assay: basal RPMI8226 viability, no added stimulus, profiling panel, cell-based, calcein-AM fluorescence, 48 h, PK04 Diversity Set (AID 1166); conditions: RPMI8226 myeloma viability, higher = more signal;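 further: cells grown under basal conditions without added stimulus; test concentration not given here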

{"smiles-input": "COC(=O)[C@@]1(Cc2ccc(OC)cc2)[C@H]2c3cc(C(=O)N4CCCC4)n(Cc4cccc5ccccc45)c3C[C@H]2CN1C(=O)c1ccccc1", "z-score": -0.718}
{"smiles-input": "COc1ccc([Si](C)(C)[C@H]2[C@H](CCn3cc([C@H](O)c4ccccc4)nn3)O[C@@]3(C(=O)N(Cc4ccc(N5C(=O)c6cccc7cccc5c67)cc4)c4ccccc43)[C@@H]2C)cc1", "z-score": -0.74}
{"smiles-input": "COC(=O)[C@@]1(Cc2ccc(OC)cc2)[C@H]2c3cc(C(=O)N(C)C)n(CCO)c3C[C@H]2CN1C(=O)c1ccccc1", "z-score": -0.755}

###

assay: S. cerevisiae RM11-1a growth modifiers, primary screen, strain RM11-1a, OD600, basal, 24 h (AID 1177); conditions: OD600, 24 h, called active from +8 up or from −8 down;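 further: cultures grown under basal conditions with no added stressor; test concentration not given here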
The source made the active and inactive calls.
Classes used: yes (active), no (inactive)

{"compound": "CCOC(=O)C1CCCCN1 (centres undefined)", "qualitative-label": "no"}
{"compound": "COCCOC(=O)N1C(=O)[C@@]2(c3cc(C#Cc4ccc(OC)cc4)ccc31)[C@H](C(=O)Nc1nc3ccccc3s1)[C@H]1C(=O)O[C@H](c3ccccc3)[C@H](c3ccccc3)N1[C@@H]2c1ccc(O)cc1", "qualitative-label": "no"}
{"compound": "C=C[C@@H](OC)[C@H](OC(=O)Nc1ccc(SC)cc1)c1ccc(O)c(F)c1", "qualitative-label": "no"}
{"compound": "CC(C)Cc1ccc(CN2CC[C@@H](NC(=O)Nc3ccccc3)C2)cc1", "qualitative-label": "no"}
{"compound": "[N-]=[N+]=NCc1ccccc1C[C@@]1(C(=O)N2CCCCC2)N=C(c2ccc(OCCCO)cc2)O[C@@H]1c1ccccc1", "qualitative-label": "no"}
{"compound": "CCCCC(=C=CC[C@@H](O)c1ccccc1OCCO)C[C@@H](O)COCc1ccccc1", "qualitative-label": "no"}
{"compound": "CC(CO)N1C(=O)[C@@H]2[C@H]3C(=O)OCC=C[C@H]3OC23C=CCN(CCN2CCOCC2)C(=O)[C@@H]13 (some centres undefined)", "qualitative-label": "no"}
{"compound": "O=C1O[C@@H](c2ccccc2)[C@@H](c2ccccc2)N2[C@@H](c3ccccc3OCCO)[C@]3(C(=O)Nc4ccc(C#CCCO)cc43)[C@@H](C(=O)N3CCCCCCC3)[C@H]12", "qualitative-label": "no"}
{"compound": "CN(C)CCCNC(=O)[C@@]1(c2ccc([N+](=O)[O-])cc2)CC(=O)N(CC23CC4CC(CC(C4)C2)C3)[C@@H]1c1ccc(CO)cc1I", "qualitative-label": "yes"}
{"compound": "COc1cc(CO)cc(I)c1O[C@H]1C=C(C(=O)NCCO)C[C@@H](NCc2ccc(F)cc2)[C@@H]1O", "qualitative-label": "no"}
{"compound": "COC(=O)C(CC#Cc1ccc2c(c1)[C@]1(C(=O)N2)[C@H](C(=O)N2CCN(c3ncccn3)CC2)[C@H]2C(=O)O[C@H](c3ccccc3)[C@H](c3ccccc3)N2[C@@H]1c1ccc(OCCO)cc1)C(=O)OC", "qualitative-label": "no"}
{"compound": "C=CCOC(=O)[C@H]1[C@@H]2C(=O)O[C@@H](c3ccccc3)[C@@H](c3ccccc3)N2[C@@H](c2ccc(OCCOC(=O)[C@H]3C[C@H]4C(=O)N[C@@H](CC(C)C)C(=O)N4[C@H]3c3cccc(OCCO)c3)cc2)[C@]12C(=O)Nc1ccc(I)cc12", "qualitative-label": "no"}
{"compound": "COC(=O)[C@@]1(Cc2ccc(OC)cc2)[C@H]2c3cc(C(=O)N4CCCC4)n(Cc4cccc5ccccc45)c3C[C@H]2CN1C(=O)c1ccccc1", "qualitative-label": "no"}
{"compound": "CCOC(=O)c1ccc(NC(=O)O[C@H]2[C@H](OC(=O)Nc3ccc4c(c3)OCO4)[C@H](OC(=O)Nc3ccc4c(c3)OCO4)[C@@H](OC)O[C@@H]2CO)cc1", "qualitative-label": "no"}

###

assay: binders of probe aFGF2 on microarray, primary screen, stem cell growth factor project, biochemical, small-molecule microarray, fluorescence 635/667 (AID 1067); conditions: higher = more signal;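 further: measures binding of biotinylated aFGF2 protein to printed compounds on slides; z-score merges feature fluorescence and signal-to-noise across triplicate slides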

{"molecule": "COCCOC(=O)N1C(=O)[C@@]2(c3cc(C#CC4=CCCCC4)ccc31)[C@H](c1ccc(OCCO)cc1)N1[C@H](c3ccccc3)[C@H](c3ccccc3)OC(=O)[C@H]1[C@@H]2C(=O)NC[C@H](O)c1ccccc1", "composite z-score": -0.0032}
{"molecule": "COCCOC(=O)N1C(=O)[C@@]2(c3cc(C#CC4=CCCCC4)ccc31)[C@H](c1ccc(O)cc1)N1[C@H](c3ccccc3)[C@H](c3ccccc3)OC(=O)[C@H]1[C@@H]2C(=O)N1CCN(c2ncccn2)CC1", "composite z-score": -0.141}
{"molecule": "CCOc1cc(C(O)C2C=CC3C(=O)N(C)C(=O)C3N2Nc2ccccc2)ccc1O (stereo unspecified)", "composite z-score": 0.0827}
{"molecule": "NCCCCCNC(=O)[C@@H]1C[C@@H]2C(=O)NCC(=O)N2[C@@H]1c1cccc(OCCO)c1", "composite z-score": 0.108}
{"molecule": "CC(=O)NCCCC[C@@H]1NC(=O)[C@@H]2C[C@H](C(=O)NCCCC[N+](C)(C)C)[C@H](c3ccc(O)cc3)N2C1=O", "composite z-score": 0.0056}
{"molecule": "COC(=O)[C@@]1(Cc2ccc(F)cc2)[C@H]2c3cc(C(=O)N(C)C)n(Cc4cc(F)cc5c4OCOC5)c3C[C@H]2CN1C(=O)c1ccccc1", "composite z-score": -0.0002}

###

assay: A549 cell viability effects, profiling panel, calcein-AM fluorescence, 48 h, basal (AID 1162); settings: higher = more signal; further: test concentration not given here
Given measured z-score, output Met if it is greater than or equal to 0.5 and Not met if not.

{"compound": "O=C1O[C@H](c2ccccc2)[C@H](c2ccccc2)N2[C@H]1[C@@H](C(=O)NC[C@H](O)c1ccccc1)[C@]1(C(=O)Nc3ccc(C#CCCO)cc31)[C@H]2c1ccc(OCCO)cc1", "qualitative-label": "Met"}
{"compound": "COc1cc2c(cc1OC)CN(C(=O)[C@@H]1[C@H]3C(=O)O[C@H](c4ccccc4)[C@H](c4ccccc4)N3[C@H](c3ccc(OCCO)cc3)[C@@]13C(=O)Nc1ccc(C#CC4(O)CCCCCC4)cc13)CC2", "qualitative-label": "Met"}
{"compound": "OCCCC1=CC(c2ccc(CN3CCCC3)cc2)N(Cc2sc3ccccc3c2Cl)CC1 (stereo unspecified)", "qualitative-label": "Not met"}
{"compound": "O=C1C[C@@](C(=O)NCCN2CCOCC2)(c2ccc([N+](=O)[O-])cc2)[C@@H](c2ccc(CO)cc2I)N1C1CCCCC1", "qualitative-label": "Not met"}
{"compound": "CN(C)c1ccc(C(O)C2C=CC3C(=O)N(c4ccccc4)C(=O)C3N2Nc2ccc([N+](=O)[O-])cc2)cc1 (stereo unspecified)", "qualitative-label": "Not met"}
